Please provide measured MIC Enterococcus faecalis (GC 6189) for the entries that follow.
system: Enterococcus sp.; experiment: in vitro antibacterial evaluation, MIC by broth dilution; type: cell-based; details: broth dilution, 18 hours at 35° C.; strain GC 6189

For COc1ccc2cc(COC3C(OC4C(CO)OC(Oc5ccc(CC6NC(=O)C(C(C)c7ccccc7)NC(=O)CNC(=O)C(CO)NC(=O)C(CC7CNC(=N)N7C7OC(CO)C(O)C(O)C7O)NC(=O)C(CC7CNC(=N)N7)NC6=O)cc5)C(O)C4O)OC(CO)C(O)C3O)ccc2c1 (centres unmarked) [Example 245c] , what is its reported MIC Enterococcus faecalis (GC 6189)?
>128 µg/mL

For COc1cccc(C2OCC3OC(OC4C(CO)OC(Oc5ccc(CC6NC(=O)C(C(C)c7ccccc7)NC(=O)CNC(=O)C(CO)NC(=O)C(C(O)C7CNC(=N)N7C7OC(CO)C(O)C(O)C7O)NC(=O)C(C(O)C7CNC(=N)N7)NC6=O)cc5)C(O)C4O)C(O)C(O)C3O2)c1 (centres unmarked) , what is its reported MIC Enterococcus faecalis (GC 6189)?
4 µg/mL

For Cc1cccc(C2OCC3OC(OC4C(CO)OC(Oc5ccc(CC6NC(=O)C(C(C)c7ccccc7)NC(=O)CNC(=O)C(CO)NC(=O)C(C(O)C7CNC(=N)N7C7OC(CO)C(O)C(O)C7O)NC(=O)C(C(O)C7CNC(=N)N7)NC6=O)cc5)C(O)C4O)C(O)C(O)C3O2)c1 (centres unmarked) , what is its reported MIC Enterococcus faecalis (GC 6189)?
2 µg/mL

For CC(c1ccccc1)C1NC(=O)CNC(=O)C(CO)NC(=O)C(CC2CNC(=N)N2C2OC(CO)C(O)C(O)C2O)NC(=O)C(CC2CNC(=N)N2)NC(=O)C(Cc2ccc(OC3OC(CO)C(OC4OC(CO)C(O)C(O)C4O)C(O)C3O)cc2)NC1=O (centres unmarked) [Example 277a] , what is its reported MIC Enterococcus faecalis (GC 6189)?
>128 µg/mL

For CC=C(C)C(=O)OC1C(CO)OC(OC2C(CO)OC(Oc3ccc(CC4NC(=O)C(C(C)c5ccccc5)NC(=O)CNC(=O)C(CO)NC(=O)C(C(O)C5CNC(=N)N5C5OC(CO)C(O)C(O)C5O)NC(=O)C(C(O)C5CNC(=N)N5)NC4=O)cc3)C(O)C2O)C(O)C1O (centres unmarked) [Example 278b] , what is its reported MIC Enterococcus faecalis (GC 6189)?
32 µg/mL

====

tested on: Staphylococcus sp.; test: in vitro antibacterial evaluation, MIC by broth dilution; assay type: cell-based; conditions: broth dilution, 18 hours at 35° C.; strain GC 4547
Property Measured: MIC Coagulase Negative Staphylococcus (GC 4547) (µg/mL)
Numbers only; they are read as µg/mL.

For CC(C)=CCCC1OCC2OC(OC3C(CO)OC(Oc4ccc(CC5NC(=O)C(C(C)c6ccccc6)NC(=O)CNC(=O)C(CO)NC(=O)C(C(O)C6CNC(=N)N6C6OC(CO)C(O)C(O)C6O)NC(=O)C(C(O)C6CNC(=N)N6)NC5=O)cc4)C(O)C3O)C(O)C(O)C2O1 (stereo not shown) [Example 123] , what is its reported MIC Coagulase Negative Staphylococcus (GC 4547)?
8

For CCCC(CCC)C(=O)OCC1OC(Oc2ccc(CC3NC(=O)C(C(C)c4ccccc4)NC(=O)CNC(=O)C(CO)NC(=O)C(C(O)C4CNC(=N)N4C4OC(CO)C(O)C(O)C4O)NC(=O)C(C(O)C4CNC(=N)N4)NC3=O)cc2)C(O)C(O)C1OC1OC(CO)C(O)C(O)C1O (stereo not shown) [Example 99b] , what is its reported MIC Coagulase Negative Staphylococcus (GC 4547)?
4

For CC(c1ccccc1)C1NC(=O)CNC(=O)C(CO)NC(=O)C(C(O)C2CNC(=N)N2C2OC(CO)C(O)C(O)C2O)NC(=O)C(C(O)C2CNC(=N)N2)NC(=O)C(Cc2ccc(OC3OC(CO)C(OC4OC(CO)C(O)C5OC(CC67CC8CC(CC(C8)C6)C7)OC45)C(O)C3O)cc2)NC1=O (stereo not shown) [Example 128] , what is its reported MIC Coagulase Negative Staphylococcus (GC 4547)?
4

For CSc1ccc(C2OCC3OC(OC4C(CO)OC(Oc5ccc(CC6NC(=O)C(C(C)c7ccccc7)NC(=O)CNC(=O)C(CO)NC(=O)C(C(O)C7CNC(=N)N7C7OC(CO)C(O)C(O)C7O)NC(=O)C(C(O)C7CNC(=N)N7)NC6=O)cc5)C(O)C4O)C(O)C(O)C3O2)cc1[N+](=O)[O-] (stereo not shown) [Example 168] , what is its reported MIC Coagulase Negative Staphylococcus (GC 4547)?
2
